# assaySystem: T1, amylin receptor (hAMY3R) (human, UniProt P30988 25-474; O60896 24-148)
# T1 sequence (looked up) 1: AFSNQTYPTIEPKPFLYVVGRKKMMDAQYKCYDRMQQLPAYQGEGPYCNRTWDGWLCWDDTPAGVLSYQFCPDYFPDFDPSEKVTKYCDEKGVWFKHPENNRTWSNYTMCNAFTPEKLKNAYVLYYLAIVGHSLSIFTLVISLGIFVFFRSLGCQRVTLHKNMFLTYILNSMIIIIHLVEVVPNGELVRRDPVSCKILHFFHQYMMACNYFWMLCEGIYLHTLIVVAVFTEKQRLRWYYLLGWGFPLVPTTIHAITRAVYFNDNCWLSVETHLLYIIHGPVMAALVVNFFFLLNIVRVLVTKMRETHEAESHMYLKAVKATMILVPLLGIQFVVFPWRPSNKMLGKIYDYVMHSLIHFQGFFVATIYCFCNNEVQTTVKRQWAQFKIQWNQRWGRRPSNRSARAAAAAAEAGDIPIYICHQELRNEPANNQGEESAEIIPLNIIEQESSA
# T1 sequence (looked up) 2: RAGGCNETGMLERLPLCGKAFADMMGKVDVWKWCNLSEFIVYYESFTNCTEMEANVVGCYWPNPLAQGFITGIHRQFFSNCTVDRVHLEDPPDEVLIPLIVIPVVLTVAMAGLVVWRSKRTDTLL
# protocolDetails: cell-based or functional assay
Numbered stars: 1 amine (or outer) side, 2 acyl side, 3 side chain; on linkers, the order of the positions; unused ones are H or OH. Square brackets hold non-standard residues; d marks the D form. Primed or numbered codes have the meaning given here. Ends that are not written are not given here. * marks the point of attachment. C22 diacid′ = docosanedioic acid (C22 diacid) acyl; C20 diacid = O=C(O)CCCCCCCCCCCCCCCCCCC(=O)*; C18 diacid = O=C(O)CCCCCCCCCCCCCCCCC(=O)*; γGlu = O=C(O)[C@H](CCC(=O)[*:2])N[*:1]; AEEA = NCCOCCOCC(=O)O
Decision: EC50, CRE-luciferase reporter in amylin receptor/CRE-luc CHO cells, 24 h beneath 0.02 nM gives MET; EC50, CRE-luciferase reporter in amylin receptor/CRE-luc CHO cells, 24 h meeting or exceeding 0.02 nM gives NOT MET.

>  <binder>
{C18 diacid-γGlu}-ASQLSTAVLGRLSDELHRLQDYPRTDVGSGSP-NH2 (ends and bridges not checked) [M8]

>  <assignedCategory>
MET

$$$$
>  <binder>
{C20 diacid-γGlu}-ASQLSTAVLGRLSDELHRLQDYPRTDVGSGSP-NH2 (ends and bridges not checked) [M6]

>  <assignedCategory>
MET

$$$$
>  <binder>
{C22 diacid′-γGlu}-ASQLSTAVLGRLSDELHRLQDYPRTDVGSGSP-NH2 (ends and bridges not checked) [M7]

>  <assignedCategory>
NOT MET

$$$$
>  <binder>
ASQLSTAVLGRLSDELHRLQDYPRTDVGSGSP (N terminus: C18 diacid + Trx+2 AEEAs) [M28]

>  <assignedCategory>
MET

$$$$
>  <binder>
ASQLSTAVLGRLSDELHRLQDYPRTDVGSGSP (not fully specified; N terminus: C20 diacid + βAsp) [M12]

>  <assignedCategory>
MET

$$$$
>  <binder>
{C18 diacid}-D[AEEA][AEEA]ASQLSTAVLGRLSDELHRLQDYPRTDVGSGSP-NH2 [M26]

>  <assignedCategory>
MET

$$$$
>  <binder>
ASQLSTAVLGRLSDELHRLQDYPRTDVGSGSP (not fully specified; N terminus: C20 diacid + αGlu+2 AEEAs) [M23]

>  <assignedCategory>
MET

$$$$
>  <binder>
ASQLSTAVLGRLSQELHRLQDYPRTDVGSGSP-NH2 [M5]

>  <assignedCategory>
NOT MET

$$$$
>  <binder>
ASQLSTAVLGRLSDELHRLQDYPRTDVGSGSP (not fully specified; N terminus: C20 diacid + Inp) [M16]

>  <assignedCategory>
NOT MET

$$$$
>  <binder>
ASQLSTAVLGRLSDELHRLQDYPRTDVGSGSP (not fully specified; N terminus: C20 diacid + αGlu) [M10]

>  <assignedCategory>
NOT MET

$$$$
>  <binder>
{C18 diacid}-E[AEEA][AEEA]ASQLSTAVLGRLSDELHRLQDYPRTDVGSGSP-NH2 [M24]

>  <assignedCategory>
MET

$$$$
